target: truncated His-MBP-Tev-KLHDC2 (residues 1-363) (Homo sapiens, UniProt Q9Y2U9); construct: truncated His -MBP-Tev-KLHDC2 (residues 1-363) purified from E. coli; made in house; host or cells: E. coli; test: KLHDC2 HTRF binding assay; conditions: 1 nM KLHDC2 (residues 1-363), fluorescein-labeled diglycine peptide probe
Sequence (Q9Y2U9 1-363): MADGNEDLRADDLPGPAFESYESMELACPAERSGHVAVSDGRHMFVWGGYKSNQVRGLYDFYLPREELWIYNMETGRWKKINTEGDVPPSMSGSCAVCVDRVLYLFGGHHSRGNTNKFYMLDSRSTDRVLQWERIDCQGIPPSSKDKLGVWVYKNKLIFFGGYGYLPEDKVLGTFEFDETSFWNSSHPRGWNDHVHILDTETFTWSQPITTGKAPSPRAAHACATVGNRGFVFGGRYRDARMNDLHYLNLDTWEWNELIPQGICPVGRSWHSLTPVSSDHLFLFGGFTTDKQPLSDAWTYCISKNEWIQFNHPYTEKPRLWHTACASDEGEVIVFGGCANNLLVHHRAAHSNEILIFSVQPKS
parameter_measured: IC50

Entry Cc1ccc2c(c1C)NC(C(=O)O)C1CC=CC21 (stereo not drawn) under truncated His-MBP-Tev-KLHDC2 (residues 1-363) (Homo sapiens, UniProt Q9Y2U9) had IC50 of > 5 µM

Sample Cc1sc2c(c1C)C(c1ccc(Cl)cc1)=N[C@@H](CC(=O)NCCCCCCn1ccc3c(C(=O)Nc4ccc(=O)n(CC(=O)O)c4)cccc31)c1nnc(C)n1-2 , system: truncated His-MBP-Tev-KLHDC2 (residues 1-363) (Homo sapiens, UniProt Q9Y2U9). Its IC50 is < 0.05 µM

Summary: COc1ccccc1OCC(=O)Nc1ccc(=O)n(CC(=O)O)c1 , truncated His-MBP-Tev-KLHDC2 (residues 1-363) (Homo sapiens, UniProt Q9Y2U9), IC50 = > 5 µM

# lookup: Cc1cc(-c2ccc(=O)n(CC(=O)O)c2)ccc1F on truncated His-MBP-Tev-KLHDC2 (residues 1-363) (Homo sapiens, UniProt Q9Y2U9), IC50 = > 5 µM

Entry O=C(O)Cn1cc(NC(=O)c2cccc(-c3cccs3)c2)ccc1=O ; assay system truncated His-MBP-Tev-KLHDC2 (residues 1-363) (Homo sapiens, UniProt Q9Y2U9); IC50 recorded at > 5 µM

Item Cc1cc(C(=O)Nc2ccc(=O)n(CC(=O)O)c2)sc1-c1ccccc1 was tested on truncated His-MBP-Tev-KLHDC2 (residues 1-363) (Homo sapiens, UniProt Q9Y2U9); the reported IC50 is 0.5 to 5 µM

Form field IC50 for item O=C(O)Cn1cc(NC(=O)[C@@H]2CN(c3cccnc3)Cc3ccccc32)ccc1=O on truncated His-MBP-Tev-KLHDC2 (residues 1-363) (Homo sapiens, UniProt Q9Y2U9): > 5 µM

IC50 on truncated His-MBP-Tev-KLHDC2 (residues 1-363) (Homo sapiens, UniProt Q9Y2U9) for CCOC(=O)Cn1cc(NC(=O)c2cc(CCCCCCN)cc(-c3cccnc3)c2)ccc1=O is > 5 µM

Field IC50 (truncated His-MBP-Tev-KLHDC2 (residues 1-363) (Homo sapiens, UniProt Q9Y2U9)), entry NC(=O)c1ccc(CN2C(=O)CCC2C(=O)O)cc1 (stereo not drawn) : > 5 µM

----------
Exercise: state measured pIC50 for each of the compounds provided.
molecular target: truncated His-MBP-Tev-KLHDC2 (residues 1-363) (Homo sapiens); construct: truncated His -MBP-Tev-KLHDC2 (residues 1-363) purified from E. coli; made in house; host or cells: E. coli; experiment: KLHDC2 HTRF binding assay; conditions: 1 nM KLHDC2 (residues 1-363), fluorescein-labeled diglycine peptide probe
pIC50: −log10 of the molar value.

// pIC50 lookup, compound = O=C(O)Cn1cc(NC(=O)c2cccc(-c3cccnc3)c2Cl)ccc1=O [I-42] , result: 5.30 to 6.30

// field: pIC50; key: COc1cccc2c(N3CCC[C@H](C(=O)Nc4ccc(Cl)c(CC(=O)O)c4)C3)cncc12 [I-5] ; value = 6.30 to 7.30

pIC50 for Cc1ccc(C(=O)Nc2ccc(=O)n(CC(=O)O)c2)nc1-c1cccnc1 [I-170] is 5.30 to 6.30

The measured pIC50 associated with Cc1ccc2nc(C(=O)Nc3ccc(=O)n(CC(=O)O)c3)ccc2c1 [I-187] reads < 5.30

Value of measured pIC50 for the entry COc1cncc(-c2cccc(C(=O)Nc3ccc4c(c3)CC(=O)O4)c2)c1 [I-13] : < 5.30

pIC50 recorded for this compound, Cc1ccc(CC(C)(C)O)cc1-c1ccc(=O)n(CC(=O)O)c1 [I-308] , is < 5.30

----------
For each record, write down the corresponding IC50.
target: truncated His-MBP-Tev-KLHDC2 (residues 1-363) (Homo sapiens); construct: truncated His -MBP-Tev-KLHDC2 (residues 1-363) purified from E. coli; made in house; host or cells: E. coli; test: KLHDC2 FP competition binding assay; conditions: 15 nM KLHDC2 (residues 1-363), 10 nM fluorescein-labeled diglycine peptide probe, read-out: KLHDC2 binding Human FP: average external IC50

Note to self: IC50 recorded for NCCCCCCc1cc(C(=O)Nc2ccc(=O)n(CC(=O)O)c2)cc(-c2cccnc2)c1 [I-166] was 0.5 to 5 µM

The molecule listed as COc1cc(-c2ccsc2)ccc1C(=O)Nc1ccc(=O)n(CC(=O)O)c1 [I-143] shows IC50 equal to 0.5 to 5 µM

The molecule listed as CS(=O)(=O)c1cccc(-c2ccc(=O)n(CC(=O)O)c2)c1 [I-385] has a reported IC50 of > 5 µM

Documented IC50 of O=C(O)Cn1cc(Nc2ncc(-c3cccnc3)c3ccccc23)ccc1=O [I-56] : > 5 µM

----------
target: truncated His-MBP-Tev-KLHDC2 (residues 1-363) (Homo sapiens); construct: truncated His -MBP-Tev-KLHDC2 (residues 1-363) purified from E. coli; made in house; host or cells: E. coli; experiment: KLHDC2 FP competition binding assay; settings: 15 nM KLHDC2 (residues 1-363), 10 nM fluorescein-labeled diglycine peptide probe, read-out: KLHDC2 binding Human FP: average external IC50
pIC50: −log10 of the molar value.
parameter_measured: pIC50

get_value(item= O=C(O)Cc1cccc(NC(=O)c2ccccc2)c1 , readout=pIC50) returns < 5.30

Value of measured pIC50 for the entry C[C@@]1(C(=O)Nc2ccc(=O)n(CC(=O)O)c2)CCCN(c2cccnc2)C1 : < 5.30

Kindly note the recorded pIC50 for O=C(O)Cn1cc(NC(=O)[C@H]2CCCN(c3cccnc3)C2)c(Cl)cc1=O , which is 5.30 to 6.30

// pIC50 value for O=C(O)Cn1cc(NC(=O)c2cccc(-c3cccnc3)c2C(F)(F)F)ccc1=O : < 5.30

Record O=C(O)Cn1cc(-c2cncc(/C=C/c3ccccc3)c2)ccc1=O , field pIC50: < 5.30

Field pIC50 (entry O=C(O)Cc1ccccc1O ) reads < 5.30

pIC50 reported for this compound O=C(O)Cn1cc(NC(=O)[C@@H]2Cc3ccccc3N(c3cccnc3)C2)ccc1=O : 5.30 to 6.30

// O=C(O)Cc1cccc(NC(=O)CCc2cccc(OC3CCCC3)c2)c1 : pIC50 value = < 5.30

Lab book: pIC50 of O=C(O)Cn1cc(NC(=O)[C@@H]2CCCN(c3cccnc3)C2)c(Cl)cc1=O noted as < 5.30

Per the record, CNC(=O)c1ccc(-c2cccc(C(=O)Nc3ccc(=O)n(CC(=O)O)c3)c2)cc1 has pIC50 of < 5.30

Short answer for O=C(O)CCC(=O)NCc1nc2ccccc2s1 : pIC50 was < 5.30

The value of pIC50 measured for the compound Cc1cc(C(=O)Nc2ccc(=O)n(CC(=O)O)c2)sc1-c1cccnc1 turned out to be < 5.30

Per the record, Cc1ccc(CC(C)C)cc1-c1ccc(=O)n(CC(=O)O)c1 has pIC50 of < 5.30

Item: O=C(O)Cn1cc(N2C[C@]3(CCCN(c4cccnc4)C3)CC2=O)ccc1=O | pIC50: < 5.30

In plain terms, O=C(O)Cn1cc(CNC(=O)c2ccccc2)ccc1=O has a documented pIC50 of < 5.30

Kindly note the recorded pIC50 for CCc1cncc(N2CCC[C@H](C(=O)Nc3ccc(Cl)c(CC(=O)O)c3)C2)c1 , which is 5.30 to 6.30

The compound listed as O=C(O)Cn1cc(NC(=O)c2cccc(-c3ccncc3)c2)ccc1=O shows pIC50 equal to < 5.30

# compound Cc1cc(O)ccc1-c1ccc(=O)n(CC(=O)O)c1 ; its pIC50 = < 5.30

pIC50 for O=C(O)Cn1cc(-c2ccccc2C(F)(F)F)ccc1=O is < 5.30

----------
Please go through the items and note down their pIC50.
biological target: truncated His-MBP-Tev-KLHDC2 (residues 1-363) (Homo sapiens, UniProt Q9Y2U9); construct: truncated His -MBP-Tev-KLHDC2 (residues 1-363) purified from E. coli; made in house; host or cells: E. coli; experiment: KLHDC2 HTRF binding assay; conditions: 1 nM KLHDC2 (residues 1-363), fluorescein-labeled diglycine peptide probe
pIC50: −log10 of the molar value.

pIC50 measured on CCc1ccc(C(=O)CCC(=O)Nc2ccc(=O)n(CC(=O)O)c2)cc1 [I-253] = < 5.30

// pIC50 lookup, compound = O=C(O)Cn1cc(NC(=O)COc2cccc(Cl)c2)ccc1=O [I-265] , result: < 5.30

Entry O=C(O)Cc1cnn2ccccc12 [I-223] — recorded pIC50 = < 5.30

pIC50 measured on CC(C)c1cc(=O)n(CC(=O)O)cc1NC(=O)[C@H]1CCCN(c2cccnc2)C1 [I-46] = 5.30 to 6.30

Record COc1cc(C)c(-c2ccc(=O)n(CC(=O)O)c2)cc1C [I-359] , field pIC50: < 5.30

// pIC50 value for COc1cccc(OCC(=O)Nc2ccc(=O)n(CC(=O)O)c2)c1 [I-261] : < 5.30

For O=C(O)Cn1cc(Nc2ncc(-c3cccnc3)c3ccccc23)ccc1=O [I-56] the compound record lists pIC50 as 5.30 to 6.30
